From: ChEMBL document CHEMBL1146330

Some compounds, each annotated with its measured Vd.
- run_description: Volume of distribution at steady state in Han Wistar rat
- Assay type: ADME, organism-based
- test_conditions: in vivo, read-out: Vdss
quantity: Vd

smiles_record | quantity | obs_value
CCCC[C@H](NC(=O)O[C@H](Cn1ccc(C(F)(F)F)n1)C(C)(C)C)C(=O)CNS(=O)(=O)c1ccccn1 | Vd | 0.46 L/kg
CCCC[C@H](NC(=O)O[C@H](Cn1cnc(-c2ccc(C(F)(F)F)cc2)c1)C(C)(C)C)C(=O)CNS(=O)(=O)c1ccccn1 | Vd | 1.6 L/kg
CCCC[C@H](NC(=O)O[C@H](Cn1ccc(-c2ccc(C(F)(F)F)cc2)n1)C(C)(C)C)C(=O)CNS(=O)(=O)c1ccccn1 | Vd | 1.8 L/kg
CCCC[C@H](NC(=O)O[C@H](Cn1cnc2cc(Cl)c(Cl)cc21)C(C)(C)C)C(=O)CNS(=O)(=O)c1ccccn1 | Vd | 1.3 L/kg
